Data origin: patent US20210300943A1

Target: OGA (Homo sapiens)
Construct: endogenous in cells; host or cells: HEK293 cells inducible for P301L mutant human Tau (2N4R)
Test: OGA cellular assay (ICC detection of O-GlcNAcylated proteins in HEK293 cells inducible for P301L mutant human Tau)
Format: cell-based
Conditions: HEK293, HEK293 cells inducible for P301L mutant human Tau, maximal effect; Thiamet G 200 uM as maximum
Label n if Emax falls below 60%; label y in every other case.

Answered cases to consult:
Does Cc1cc(C[C@H]2CCCN(C(C)c3ccc4c(n3)OCCO4)C2)cc(OC(F)(F)F)n1 (mixture of isomers) have a reported Emax of at least 60%?
y

Does Cc1cc(CC2CN(C(C)c3ccc4c(n3)OCCO4)CCC2O)cc(C)n1 (stereo not shown) have a reported Emax of at least 60%?
y

Does Cc1cc(NCC2CCCN(C(C)c3ccc4c(c3)OCC4)C2)cc(C(F)(F)F)n1 (stereo not shown) have a reported Emax of at least 60%?
y

Turning to the following compound.
Does Cc1cc([C@@H]2CCCN(C(C)c3ccc4c(n3)OCCO4)C2)cc(C)n1 (single isomer, unassigned) have a reported Emax of at least 60%?
n

----------
Molecular target: OGA (Homo sapiens, UniProt O60502)
Construct: endogenous in cells; host or cells: HEK293 cells inducible for P301L mutant human Tau (2N4R)
Test: OGA cellular assay (ICC detection of O-GlcNAcylated proteins in HEK293 cells inducible for P301L mutant human Tau)
Type: cell-based
Details: HEK293 cells inducible for P301L mutant human Tau, 6 hours incubation; read-out: Cellular hOGA; pEC50 (converted)
Cut-off 20 nM on EC50: below means 1.0, at or above means 0.0.

Answered cases to consult:
Is EC50 strictly under 20 nM for the entry Cc1cc(C[C@H]2CCCN(C(C)c3ccc4c(c3)OCC4)C2)cc(C)n1 (mixture of isomers) [Product 47] ?
1.0

Is EC50 strictly under 20 nM for the entry COc1cc(CN[C@H]2CCCN(C(C)c3ccc4c(n3)OCCO4)C2)cc(C)n1 (stereo partly shown) [Product 198] ?
0.0

Turning to the following molecule.
Is EC50 strictly under 20 nM for the entry Cc1cc(C[C@H]2CCCN(C(C)c3cnc4c(c3)OCCO4)C2)cc(C)n1 (single isomer, unassigned) [Product 132] ?
0.0

----------
Please provide measured Emax for the entries that follow.
Target: recombinant human Meningioma Expressed Antigen 5 (MGEA5), also referred to as O-GlcNAcase (OGA) (Homo sapiens, UniProt O60502)
Construct: Full length OGA enzyme was purchased at OnGene (cat #TP322411); purchased OnGene (so in the source)
Test: OGA biochemical assay (inhibition of FM-GlcNAc hydrolysis, fluorescence)
Conditions: maximal effect, read-out: Enzymatic Emax (%)
Numbers only, in %.

Look up and state reported Emax for Cc1cc(C[C@H]2CCCN(C(C)c3cc4c(cc3F)OCCO4)C2)cc(C(F)(F)F)n1 (mixture of isomers) [Product 68]
102

Look up and state reported Emax for Cc1cc(C2CCCN(C(C)c3cc4c(cc3F)OCCO4)C2)cc(C(F)(F)F)n1 (stereo not drawn) [Product 9]
102

Look up and state reported Emax for Cc1cc(CC2(F)CCCN([C@@H](C)c3ccc4c(n3)OCCO4)C2)cc(C)n1 (single isomer, unassigned) [Product 177]
81

Look up and state reported Emax for Cc1cc([C@H]2CCCN([C@@H](C)c3ccc4c(c3)OCC4)C2)cc(C)n1 (racemic) [Product 4]
103

Look up and state reported Emax for COc1cc(OC[C@H]2CCCN(C(C)c3ccc4c(n3)OCCO4)C2)cc(C)n1 (single isomer, unassigned) [Product 184]
87

Look up and state reported Emax for COc1cc(C2CCCN(C(C)c3ccc4c(n3)OCCO4)C2)cc(C)n1 (stereo not drawn) [Product 7]
103

Look up and state reported Emax for Cc1cc(OC[C@H]2CCCN(C(C)c3nc4c(cc3F)OCCO4)C2)cc(C)n1 (single isomer, unassigned) [Product 155]
99

Look up and state reported Emax for Cc1cc(C[C@H]2CCCN([C@@H](C)c3ccc4c(n3)OCCO4)C2)cc(C)n1 (single isomer, unassigned) [Product 46]
101

Look up and state reported Emax for Cc1cc(NCC2CCCN(C(C)c3ccc4c(n3)OCCO4)C2)cc(C)n1 (stereo not drawn) [Product 21]
103

Look up and state reported Emax for Cc1cc([C@@H]2CCCN([C@H](C)c3ccc4c(n3)OCCO4)C2)cc(C)n1 (single isomer, unassigned) [Product 160]
89

Could you tell me Emax for each of these compounds? They are listed below.
1. Cc1cc(C[C@H]2CCCN(C(C)c3cc4c(cc3F)OCCO4)C2)cc(C)n1 (single isomer, unassigned) [Product 42]
2. COc1cc(NC[C@H]2CCCN(C(C)c3ccc4c(n3)OCCO4)C2)cc(C)n1 (mixture of isomers) [Product 24]
3. Cc1cc(CN[C@H]2CCCN(C(C)c3nc4c(cc3F)OCCO4)C2)cc(C)n1 (stereo partly drawn) [Product 193]

99
102
99

Could you tell me Emax for each of these compounds? They are listed below.
1. Cc1cc(C[C@H]2CCCN(Cc3cnc4c(c3)OCC(=O)N4)C2)cc(C)n1 [Product 55]
2. Cc1cc(OC[C@H]2CCCN(C(C)c3cc4c(cc3F)NCCO4)C2)cc(C)n1 (stereo partly drawn) [Product 191]

1: 90; 2: 95

----------
Please provide measured EC50 for the entries that follow.
Molecular target: OGA (Homo sapiens, UniProt O60502)
Construct: endogenous in cells; host or cells: HEK293 cells inducible for P301L mutant human Tau (2N4R)
Experiment: OGA cellular assay (ICC detection of O-GlcNAcylated proteins in HEK293 cells inducible for P301L mutant human Tau)
Assay type: cell-based
Settings: HEK293 cells inducible for P301L mutant human Tau, 6 hours incubation; read-out: Cellular hOGA; pEC50 (converted)
Answers are plain numbers, in nM.

Answered examples (3):
Check OGA (Homo sapiens, UniProt O60502) data and give EC50 for Cc1cc(C[C@H]2CCCN(C(C)c3cnc4c(c3)OCC4)C2)cc(C)n1 (mixture of isomers) .
158

Check OGA (Homo sapiens, UniProt O60502) data and give EC50 for Cc1cc(C[C@H]2CCCN(C(C)c3ccc4c(n3)OCCO4)C2)cc(OC(F)(F)F)n1 (mixture of isomers) .
79.4

Check OGA (Homo sapiens, UniProt O60502) data and give EC50 for COc1cc(C2CCCN(C(C)c3cc4c(cc3F)OCCO4)C2)cc(C(F)(F)F)n1 (stereo not shown) .
316

Could you tell me EC50 for each of these compounds? They are listed below.
1. Cc1cc(C2CCCN(C(C)c3nc4c(cc3F)OCCO4)C2)cc(C)n1 (stereo not shown)
2. Cc1cc(C[C@H]2CCCN(C(C)c3cnc4c(c3)OCCN4C)C2)cc(C)n1 (mixture of isomers)

6.92
316

Check OGA (Homo sapiens, UniProt O60502) data and give EC50 for CC(c1nc2c(cc1F)OCCO2)N1CCC[C@@H](CNc2ccc(F)cc2)C1 (stereo partly shown) .
79.4

----------
Target: recombinant human Meningioma Expressed Antigen 5 (MGEA5), also referred to as O-GlcNAcase (OGA) (Homo sapiens)
Construct: Full length OGA enzyme was purchased at OnGene (cat #TP322411); purchased OnGene (so in the source)
Test: OGA biochemical assay (inhibition of FM-GlcNAc hydrolysis, fluorescence)
Details: maximal effect, read-out: Enzymatic Emax (%)
Please provide measured Emax for the entries that follow.
One number for each entry, in %.

Answered examples (2):
Look up and state reported Emax for Cc1cc(CO[C@@H]2CCCN([C@H](C)c3ccc4c(n3)OCCO4)C2)cc(C)n1 (mixture of isomers)
98

Look up and state reported Emax for Cc1cc(CO[C@H]2CCCN(C(C)c3ccc4c(n3)OCCO4)C2)cc(C)n1 (single isomer, unassigned)
98

Could you tell me Emax for each of these compounds? They are listed below.
1. COc1cc(N[C@H]2CCCN(C(C)c3ccc4c(n3)OCCO4)C2)cc(C)n1 (stereo partly shown)
2. COc1cc(NC[C@H]2CCCN(C(C)c3ccc4c(n3)OCCO4)C2)cc(C)n1 (single isomer, unassigned) [Product 25]

1. 99
2. 103

----------
Target: OGA (Homo sapiens, UniProt O60502)
Construct: endogenous in cells; host or cells: HEK293 cells inducible for P301L mutant human Tau (2N4R)
Experiment: OGA cellular assay (ICC detection of O-GlcNAcylated proteins in HEK293 cells inducible for P301L mutant human Tau)
Type: cell-based
Conditions: HEK293 cells inducible for P301L mutant human Tau, maximal effect; Thiamet G 200 uM as maximum
Please provide measured Cellular Emax (%) for the entries that follow.
One number for each entry, in %.

Answered examples (4):
Look up and state reported Cellular Emax (%) for Cc1cc(CO[C@H]2CCCN(C(C)c3nc4c(cc3F)OCCO4)C2)cc(C)n1 (single isomer, unassigned) [Product 170]
79

Look up and state reported Cellular Emax (%) for Cc1cc(CO[C@H]2CCCN(C(C)c3ccc4c(n3)OCCO4)C2)cc(C)n1 (single isomer, unassigned) [Product 167]
26

Look up and state reported Cellular Emax (%) for Cc1cc(OC[C@H]2CCCN(C(C)c3cnc4c(c3)OCCN4)C2)cc(C)n1 (stereo partly shown)
80

Look up and state reported Cellular Emax (%) for Cc1cc(CO[C@H]2CCCN(C(C)c3nc4c(cc3F)OCCO4)C2)cc(C)n1 (single isomer, unassigned) [Product 169]
−5

Could you tell me Cellular Emax (%) for each of these compounds? They are listed below.
1. Cc1cc(OC[C@H]2CCCN(C(C)c3ccc4c(n3)OCCO4)C2)nc(C)n1 (single isomer, unassigned) [Product 162]
2. Cc1cc(OC[C@H]2CCCN(C(C)c3nc4c(cc3F)OCCO4)C2)cc(C)n1 (single isomer, unassigned) [Product 155]
3. Cc1cc(CO[C@H]2CCCN(C(C)c3ccc4c(n3)OCCO4)C2)cc(C)n1 (single isomer, unassigned) [Product 166]
4. Cc1cc(OC[C@H]2CCCN(C(C)c3nc4c(cc3F)OCCO4)C2)cc(C)n1 (single isomer, unassigned) [Product 156]
5. Cc1cc(OC[C@H]2CCCN(C(C)c3ccc4c(n3)OCCO4)C2)nc(C)n1 (single isomer, unassigned) [Product 163]
6. Cc1cc(OC[C@H]2CCCN(C(C)c3nc4c(cc3F)CCO4)C2)cc(C)n1 (single isomer, unassigned)

1: 3; 2: 95; 3: 67; 4: 55; 5: 82; 6: 79
